molecular target: HLA-B*15:03; test: IEDB peptide-MHC binding, purified MHC/competitive/radioactivity; filed as Kd, often an IC50 or EC50 that approximates it; bounds were set here for any values at or beyond the usual limits of such assays; conditions: source organism: Vaccinia virus Copenhagen
measured.endpoint: pKd
Numbers only, as −log10 of the molar value.

HMAYSFQTF ... 9.55

Lab note: next sequence to report on.
Lookup: Lab note: need pKd for SMWYIPNVF on HLA-B*15:03, anyone have it?
Found: 9.14

* * *

molecular target: HLA-A*31:01; assay: IEDB peptide-MHC binding, purified MHC/competitive/radioactivity; filed as Kd, often an IC50 or EC50 that approximates it; bounds were set here for any values at or beyond the usual limits of such assays; details: source organism: Mammarenavirus brazilense
measured.endpoint: Kd (nM)
Give bare numbers, in nM.

Lookup: Lab note: need Kd for KCSDHYICLK on HLA-A*31:01, anyone have it?
Found: 482

* * *

biological target: HLA-B*08:01; assay: IEDB peptide-MHC binding, purified MHC/competitive/fluorescence; bounds were set here for any values at or beyond the usual limits of such assays; conditions: source organism: Monodelphis domestica
measured.endpoint: IC50

Lookup: Recorded IC50 of FLLPILSQIYT , please.
Found: ≥ 20 µM

* * *

target: HLA-A*01:01; experiment: IEDB peptide-MHC binding, purified MHC/competitive/fluorescence; bounds were set here for any values at or beyond the usual limits of such assays; conditions: source organism: Sudan ebolavirus
measured.endpoint: IC50 (µM)
Answers are plain numbers, in µM.

Lookup: Recorded IC50 of VSYEAGEWA , please.
Found: 50.3

* * *

molecular target: HLA-A*68:02; experiment: IEDB peptide-MHC binding, purified MHC/competitive/radioactivity; filed as Kd, often an IC50 or EC50 that approximates it; bounds were set here for any values at or beyond the usual limits of such assays; details: source organism: Dengue virus 2 Jamaica/1409/1983
measured.endpoint: Kd (nM)
One number for each entry, in nM.

Lookup: Recorded Kd of MVSILASSL , please.
Found: 134

* * *

target: HLA-A*01:01; experiment: IEDB peptide-MHC binding, purified MHC/direct/fluorescence; filed as Kd, often an IC50 or EC50 that approximates it; bounds were set here for any values at or beyond the usual limits of such assays; details: source organism: Influenza A virus (A/Quail/Shanghai/8/96(H9N2))
pKd: −log10 of the molar value.
measured.endpoint: pKd

Lookup: Recorded pKd of LVGGREWSY , please.
Found: ≤ 4.70

* * *

biological target: HLA-A*03:01; experiment: IEDB peptide-MHC binding, purified MHC/direct/fluorescence; filed as Kd, often an IC50 or EC50 that approximates it; bounds were set here for any values at or beyond the usual limits of such assays; conditions: source organism: Influenza A virus (A/duck/Hokkaido/1130/01(H1N1))
pKd: −log10 of the molar value.
measured.endpoint: pKd

Lookup: Recorded pKd of ELRSRYWAI , please.
Found: ≤ 4.70

* * *

biological target: HLA-A*03:01; test: IEDB peptide-MHC binding, purified MHC/direct/fluorescence; filed as Kd, often an IC50 or EC50 that approximates it; bounds were set here for any values at or beyond the usual limits of such assays; details: source organism: H9N2 subtype Influenza A virus (A/swine/Korea/S83/2004(H9N2))
pKd: −log10 of the molar value.
measured.endpoint: pKd

Lookup: Recorded pKd of HFQKDAKVL , please.
Found: ≤ 4.70
